tested on: Plasmodium falciparum; experiment: Confirmatory screen in NF54 nanoGlo assay, in single point, at 2uM, 72h; assay type: functional, Erythrocyte; conditions: timepoint 72 hour
The whole screen tested about 4,800 compounds, of which about 420 (8.8%) showed an effect of 50% or more. Many of the other results were omitted from the sample, so strong results are more common in it than they were.
Property: % Inhibition (%)
Answers are plain numbers, in %.

Please supply % Inhibition for each of the following items, keeping them in order.
1. CCOC(=O)N1CCN(c2nccn3nc(-c4ccc(OC)c(OC)c4)cc23)CC1
2. CCNc1nc(C)cc(Nc2ccc(NC(=O)c3cc(C)ccc3C)cc2)n1
3. COc1ccc(Nc2nnc(-c3ccc(NC(=O)C(=O)NCCCn4ccnc4)cc3)s2)cc1

Result:
[-6, 98, 56]

Please supply % Inhibition for each of the following items, keeping them in order.
1. O=S(=O)(Cc1cc(Cl)cc(Cl)c1)NCCCCn1ccnc1
2. CCNc1nc(C)cc(Nc2ccc(NS(=O)(=O)c3c(C)noc3C)cc2)n1
3. Cc1cc(-c2ccccc2)nc(O)c1S(C)(=O)=O
4. Cc1ccc(-c2noc(CCC(=O)NC[C@H]3CCCO3)n2)c(=O)n1C(C)C
5. COCc1nncn1C1CN(C(=O)Cc2cc(OC)cc(OC)c2)C1
6. Cc1nc(C)c(CN2C(=O)C3CCCCC3C2=O)s1 (configuration not stated)

Result:
[-6, 92, -3, -1, -16, -2]

Please supply % Inhibition for each of the following items, keeping them in order.
1. O=C(COc1ccccc1)N1CC(n2cnnc2C2CC2)C1
2. Cc1cc(-c2cc(O)cc(CC[C@H]3CCCCN3)c2)ccn1
3. Cc1ncoc1C(=O)N1CC(F)(F)C[C@H]1Cn1cc(C(=O)N2CCOCC2)nn1
4. Cc1cc(C(=O)Nc2cc(C)nn2C)nc(N(C)C)n1
5. CCCCC12CN(S(=O)(=O)c3ccccc3)CC(C)(CN(S(=O)(=O)c3ccccc3)C1)C2=O
6. O=C(Nc1ccc(N2CCOCC2)cc1)Nc1ccc(F)cc1F
7. O=C(Nc1ccc(C2(c3ccc(NC(=O)c4ccc(F)cc4)cc3)c3ccccc3C(=O)c3ccccc32)cc1)c1ccc(F)cc1
8. Clc1cccc(CNc2cc(-c3ccco3)n[nH]2)c1

Result:
-11
79
-1
-1
-5
1
67
-7

Please supply % Inhibition for each of the following items, keeping them in order.
1. COC(=O)C1(CNC(=O)C2CCC2)CCCCC1
2. O=C(N[C@H]1CCCc2occc21)c1ccco1
3. COc1cc(C(=O)N2CCN(c3ccccc3)CC2)cc2occc12
4. O=C(N[C@@H]1CN(Cc2ccccn2)CCC[C@H]1O)c1ccc(OCc2ccccc2)cc1

Result:
[1, 0, -2, 30]

---

I'd appreciate it if you could supply % Inhibition values for the items below.
tested on: Plasmodium falciparum; assay: Confirmatory screen in NF54 nanoGlo assay, in single point, at 2uM, 72h; assay type: functional, Erythrocyte; details: timepoint 72 hour
Hit rate of the full screen: of about 4,800 compounds, about 420 (8.8%) showed an effect of 50% or more. For the sample, strong results were picked, then their nearest neighbours and some compounds at random.
One number for each entry, in %.

1) COCCCN1CC(=O)N[C@@H]2CN(C(=O)CCc3cccnc3)CC[C@@H]2OCc2cccc(c2)Oc2cc(ccc2OC)C1
14
2) COC(=O)c1cccc(C#Cc2cccc(NC(=O)c3cnc(C)cn3)c2)c1
-19
3) O=C1c2ccccc2C(c2ccc(NC(=O)c3cccc4ccccc34)cc2)(c2ccc(NC(=O)c3cccc4ccccc34)cc2)c2ccccc21
83

We now examine a further compound.
Problem: Give Plasmodium falciparum % Inhibition for the following compound: O=C(Nc1sc2c(c1C(=O)O)CCC2)c1ccsc1
Result: -3

---

I'd appreciate it if you could supply % Inhibition values for the items below.
tested on: Plasmodium falciparum; assay: Confirmatory screen in NF54 nanoGlo assay, in single point, at 2uM, 72h; assay type: functional, Erythrocyte; conditions: timepoint 72 hour
The whole screen tested about 4,800 compounds, of which about 420 (8.8%) showed an effect of 50% or more. The list comes from a sample in which strong results are over-represented; it also holds close analogues and randomly drawn compounds.
Give bare numbers, in %.

1) CCNC(=O)NCCOC(=O)c1cccc(C)c1Cl
1
2) Cc1nn(C)cc1-c1nn(-c2nc(C3CC3)cc(C(F)(F)F)n2)c(-c2cn(C)nc2C)c1C
16

Please supply % Inhibition for each of the following items, keeping them in order.
1. Cc1c(-c2nn(-c3nc(C4CC4)cc(C(F)(F)F)n3)c(-c3cnn(C)c3C)c2Cl)cnn1C
2. O=C(NC1CCN(Cc2ccccc2)CC1)c1cnn2c(-c3ccc4c(c3)OCO4)ccnc12
3. COc1ccccc1Cn1cnc2c1c(=O)n(C1CCCCC1)c(=O)n2-c1ccccc1Cl
4. O=C(Cc1c(Cl)cccc1Cl)N1CC[C@]2(CCOC2)C1
5. Cc1ccc(Cn2cnc(NC(=O)CCn3c(=O)cc(C(F)F)c4cn(C)nc43)n2)cc1
6. COC(=O)COc1nonc1-c1ccccc1

Result:
[69, 3, 83, -8, -8, 7]

---

system: Plasmodium falciparum; test: Confirmatory screen in NF54 nanoGlo assay, in single point, at 2uM, 72h; type: functional, Erythrocyte; details: timepoint 72 hour
Hit rate of the full screen: of about 4,800 compounds, about 420 (8.8%) showed an effect of 50% or more. Only a selection was taken, and strong results are over-represented in it overall.
Property: % Inhibition (%)
Give bare numbers, in %.

// worked examples, % Inhibition included
1) Cc1ccc(CNCCC2=CCCCC2)cc1
-2
2) Brc1cncnc1NC1CC1
2
3) O=C(Nc1[nH]c(=O)ncc1F)c1coc(-c2ccccc2)n1
80

Please supply % Inhibition for each of the following items, keeping them in order.
1. COc1ccc(CC(=O)N(c2ccccc2)c2ccccc2)cc1
2. CN1CCC(Nc2ncnc3c2cnn3C)C1c1ccc(Cl)cc1 (stereo not drawn)
3. O=C(c1coc(-c2ccccc2)n1)N1CCc2cc(Br)ccc21
4. COc1ccc(C(=O)N2CC(C(=O)O)CCC2c2ccccc2)cc1 (stereo not drawn)
5. O=C(OCc1ccc(C(F)(F)F)nc1)c1ccc(C(F)(F)F)nc1

Result:
[21, 4, -4, 3, 7]

---

test system: Plasmodium falciparum; experiment: Confirmatory screen in NF54 nanoGlo assay, in single point, at 2uM, 72h; assay type: functional, Erythrocyte; conditions: timepoint 72 hour
Out of some 4,800 compounds screened, about 420 (8.8%) showed an effect of 50% or more. The list comes from a sample in which strong results are over-represented; it also holds close analogues and randomly drawn compounds.
I'd appreciate it if you could supply % Inhibition values for the items below.
Numbers only, in %.

1. CC(=O)Nn1ccc2nc(N3CCOCC3)ncc2c1=O
-7
2. CCc1nc2cc(-c3noc(Cc4ccc(Cl)cc4)n3)ccc2o1
-5
3. O=C(NCCc1c(Cl)cccc1Cl)[C@@H]1CCCc2[nH]cnc21
-2
4. Cn1nc(C(=O)N2CCCCC[C@H]2C2CCCCC2)ccc1=O
-10
5. Brc1ccc2sncc2c1
-3
6. O=C(N[C@@H](N1CCCCC1)C(Cl)(Cl)Cl)c1cccnc1
2
7. CC(=O)c1ccc(NC(=O)Cn2c(-c3ccccc3)nc(C)cc2=O)cc1
4
8. Cn1c(-c2ccc(Br)cc2)cn2cc(-c3ccc(Cl)cc3)nc12
-5
9. Cc1ccc(S(=O)(=O)c2c(NS(=O)(=O)c3ccc(F)cc3)n(CCc3ccccc3)c3nc4ccccc4nc23)cc1
100
10. c1nc2nc[nH]c(NC3CCCCC3)c-2n1
10

Please supply % Inhibition for each of the following items, keeping them in order.
1. Cc1ccc(C(=O)N2CCCC23CCC3)nn1
2. Cc1cc(=O)n2ncc(C(=O)NCc3cc(F)cc(F)c3)c2[nH]1
3. CCOc1cc(-c2cc(-c3ccccc3O)nc3ccc4ccccc4c23)cc(Br)c1O
4. Cc1cc(-c2ccco2)cc(Cl)c1N
5. COc1ccc(S(=O)(=O)N(CC(=O)N2CCN(Cc3ccc4c(c3)OCO4)CC2)C2CCCCC2)cc1OC
6. COCC[C@](C)(O)CNC(=O)Nc1ccccc1

Result:
1: -11; 2: -13; 3: 91; 4: -1; 5: -3; 6: 1

Please supply % Inhibition for each of the following items, keeping them in order.
1. Cc1cc(CN2C(=O)NC3(CCCCC3)C2=O)no1
2. O=C(Nc1c(S(=O)(=O)c2ccccc2)c2nc3ccccc3nc2n1CCc1ccccc1)c1ccc(Cl)cc1
3. O=S(=O)(Cc1ccccc1)Nc1nnc[nH]1
4. CCN(CCN(C)C)C(=O)c1cccc(-c2ccc3nccc(N)c3c2)c1
5. Cc1cc(C(=O)Nc2ccc(Br)c(C)n2)no1

Result:
1: -4; 2: 102; 3: -1; 4: 70; 5: -12
